# Percentage inhibition of ligand binding, Adrenergic α1B per record follows
target: rat adrenergic α1B receptor (Rattus norvegicus, UniProt P15823); construct: rat adrenergic α1B receptor obtained from Wistar Rat liver; from tissue; host or cells: Wistar rat liver; test: Radioligand binding, adrenergic α1B ([3H]Prazosin); set-up: species or system Wistar Rat; conditions: 0.1 μM compound, 0.1 µM
Sequence (P15823 whole entry): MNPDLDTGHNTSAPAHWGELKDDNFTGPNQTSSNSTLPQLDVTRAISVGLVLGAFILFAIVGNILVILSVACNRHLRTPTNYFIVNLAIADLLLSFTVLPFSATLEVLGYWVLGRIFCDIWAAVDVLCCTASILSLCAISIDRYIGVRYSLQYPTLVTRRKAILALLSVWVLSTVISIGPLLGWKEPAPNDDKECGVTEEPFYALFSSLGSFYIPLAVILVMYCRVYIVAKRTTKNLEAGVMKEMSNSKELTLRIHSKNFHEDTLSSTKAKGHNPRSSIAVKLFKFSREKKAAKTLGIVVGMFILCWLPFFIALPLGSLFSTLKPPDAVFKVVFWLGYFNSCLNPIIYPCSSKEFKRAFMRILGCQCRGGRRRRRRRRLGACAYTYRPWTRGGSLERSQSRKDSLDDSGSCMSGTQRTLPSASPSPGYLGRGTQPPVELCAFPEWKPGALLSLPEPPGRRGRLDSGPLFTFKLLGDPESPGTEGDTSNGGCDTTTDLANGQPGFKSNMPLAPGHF
// return numeric value only (unit: %, not printed)

Cc1ccc2c(c1)c1c(n2CC(O)c2ccncc2)CCN2CCCC12 (single isomer, unassigned) [129b] : 69
Cc1ccc2c(c1)c1c(n2CC(O)c2ccncc2Cl)CCN(C)C1 (single isomer, unassigned) [135a] : 60
Cc1ccc2c(c1)c1c(n2CC(c2ccncc2)N(C)C)CCN(C)C1 (single isomer, unassigned) [150a] : 16
Cc1ccc2c(c1)c1c(n2CC(O)c2ccncc2)CCN2CCCC12 (single isomer, unassigned) [129a] : 73
Cc1ccc(CCn2c3c(c4cc(Cl)cnc42)C2CCCN2CC3)cn1 (single isomer, unassigned) [137b] : 23
Cc1ccc2c(c1)c1c(n2CC(N)c2ccncc2)CC2CCC1N2C (single isomer, unassigned) [155b] : 1
Cc1cnc2c(c1)c1c(n2CC(N)c2ccc(C#N)cc2)CCN(C)C1 (single isomer, unassigned) [159a] : −2
Cc1ccc2c(c1)c1c(n2CC(C)(OC(=O)C(C)C)c2cccnc2)CCN(C)C1 (single isomer, unassigned) [146b] : 11
Cc1cnc2c(c1)c1c(n2CC(C)(O)c2ccc(F)cc2)CCN(C)C1 (single isomer, unassigned) [138b] : 22
Cc1cnc2c(c1)c1c(n2CC(C)(O)c2ccc(C)nc2)CCN2CCCC12 (single isomer, unassigned) [148a] : 23

Recall the reported Percentage inhibition of ligand binding, Adrenergic α1B of Cc1ccc2c(c1)c1c(n2CC(C)(O)c2ccc(C)nc2)CN(C)CC1 (stereo not drawn) [196b] on rat adrenergic α1B receptor (Rattus norvegicus, UniProt P15823) and write it down. 37

GET Percentage inhibition of ligand binding, Adrenergic α1B | system: rat adrenergic α1B receptor (Rattus norvegicus, UniProt P15823) | item: Cc1ccc2c(c1)c1c(n2CC(C)(OC(=O)C(C)C)c2cccnc2)CCN(C)C1 (single isomer, unassigned) [146a] 41

Tell me Percentage inhibition of ligand binding, Adrenergic α1B of Cc1ccc(CCn2c3c(c4cc(Cl)cnc42)C2CCCN2CC3)cn1 (single isomer, unassigned) [137a] when tested on rat adrenergic α1B receptor (Rattus norvegicus, UniProt P15823). 94

Give Percentage inhibition of ligand binding, Adrenergic α1B; test system rat adrenergic α1B receptor (Rattus norvegicus, UniProt P15823); compound CN1CCc2c(c3cc(Cl)ccc3n2CC(C)(O)c2ccc(C(F)(F)F)nc2)C1 (single isomer, unassigned) [143a] 43

Name the value of Percentage inhibition of ligand binding, Adrenergic α1B reported for Cc1cnc2c(c1)c1c(n2CC(C)(O)c2ccc(F)cc2)CCN(C)C1 (single isomer, unassigned) [138a] when tested on rat adrenergic α1B receptor (Rattus norvegicus, UniProt P15823). 61

====

target: rat adrenergic α1B receptor (Rattus norvegicus); construct: rat adrenergic α1B receptor obtained from Wistar Rat liver; from tissue; host or cells: Wistar rat liver; test: Radioligand binding, adrenergic α1B ([3H]Prazosin); parameters: species or system Wistar Rat; settings: compound at 0.1 μM, 0.1 µM
Measured Percentage inhibition of ligand binding, Adrenergic α1B of individual entries
// return numeric value only (unit: %, not printed)

CC(Cn1c2c(c3ccccc31)CN(C)CC2)c1ccc(F)cc1 (single isomer, unassigned) [272a] : 27
Cc1cnc2c(c1)c1c(n2CC(C)(O)c2cccnc2)CCN(C)C1 (single isomer, unassigned) [II-99b] : 5
Cc1ccc2c(c1)c1c(n2CC(C)c2ccc(C)nc2)CCN(C)C1 (single isomer, unassigned) [289a] : 51

Give rat adrenergic α1B receptor (Rattus norvegicus) Percentage inhibition of ligand binding, Adrenergic α1B for the following molecule: Cc1ccc2c(c1)c1c(n2CC(C)c2ccc(C)nc2)CCN(C)C1 (single isomer, unassigned) [289b] 12

Answer with Percentage inhibition of ligand binding, Adrenergic α1B of Cc1cnc2c(c1)c1c(n2CC(C)(O)c2cccnc2)CCN(C)C1 (single isomer, unassigned) [II-99a] measured for rat adrenergic α1B receptor (Rattus norvegicus). 12

Under rat adrenergic α1B receptor (Rattus norvegicus): report Percentage inhibition of ligand binding, Adrenergic α1B of CC(Cn1c2c(c3ccccc31)CN(C)CC2)c1ccc(F)cc1 (single isomer, unassigned) [272b] . 30

====

biological target: human recombinant adrenergic α2B receptor (Homo sapiens); construct: expressed in transfected cells; host or cells: CHO-K1; test: Radioligand binding, adrenergic α2B ([3H]Rauwolscine); conditions: compound at 0.03 μM, 0.03 µM
Sequence (P18089 whole entry): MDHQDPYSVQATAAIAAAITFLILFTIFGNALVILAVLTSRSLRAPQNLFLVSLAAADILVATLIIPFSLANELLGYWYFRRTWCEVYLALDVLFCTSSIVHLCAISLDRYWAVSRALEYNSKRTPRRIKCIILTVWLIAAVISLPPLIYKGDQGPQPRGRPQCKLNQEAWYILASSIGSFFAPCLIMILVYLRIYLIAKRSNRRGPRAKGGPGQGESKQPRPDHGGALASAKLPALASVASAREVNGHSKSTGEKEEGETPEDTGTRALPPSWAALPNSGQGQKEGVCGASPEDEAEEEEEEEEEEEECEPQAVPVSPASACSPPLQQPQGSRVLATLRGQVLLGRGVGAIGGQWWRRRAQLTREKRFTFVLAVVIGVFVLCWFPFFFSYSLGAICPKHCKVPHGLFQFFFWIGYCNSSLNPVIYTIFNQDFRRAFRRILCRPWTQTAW
Measured Percentage inhibition of ligand binding, Adrenergic α2B values are reported for all entries that follow.
Write down the numeric answer in % and omit the unit.

Example results:
OCCN1CCc2c(c3cc(Cl)ccc3n2CC(O)c2cccnc2)C1 (single isomer, unassigned) [II-94b] : 24
Cc1ccc2c(c1)c1c(n2CC(N)c2ccncc2)CCN2CCCC12 (single isomer, unassigned) [II-4a] : 79
Cc1cnc2c(c1)c1c(n2CC(O)c2ccc(C)nc2)CCN(C)C1 (single isomer, unassigned) [II-100a] : 12
Cc1cnc2c(c1)c1c(n2CC(C)(O)c2cccnc2)CCN(C)C1 (single isomer, unassigned) [II-99a] : 49
Cc1ccc2c(c1)c1c(n2CC(N)c2ccncc2)CCN2CCCC12 (single isomer, unassigned) [II-4b] : 100

State its Percentage inhibition of ligand binding, Adrenergic α2B: Cc1cnc2c(c1)c1c(n2CC(C)(O)c2cccnc2)CCN(C)C1 (single isomer, unassigned) [II-99b] 7

Report measured Percentage inhibition of ligand binding, Adrenergic α2B; entry is Cc1cnc2c(c1)c1c(n2CC(O)c2ccc(C)nc2)CCN(C)C1 (single isomer, unassigned) [II-100b] 1

Answer with the recorded Percentage inhibition of ligand binding, Adrenergic α2B for the compound listed here: OCCN1CCc2c(c3cc(Cl)ccc3n2CC(O)c2cccnc2)C1 (single isomer, unassigned) [II-94a] 8

====

target: rat adrenergic α1B receptor (Rattus norvegicus, UniProt P15823); construct: rat adrenergic α1B receptor obtained from Wistar Rat liver; from tissue; host or cells: Wistar rat liver; assay: Radioligand binding, adrenergic α1B ([3H]Prazosin); set-up: species or system Wistar Rat; conditions: 0.1 μM compound
RECORDED METRIC: Percentage inhibition of ligand binding, Adrenergic α1B (%)
Numeric only. Scale: %

These recorded examples may help you get a feel for the data.
Cc1ccc2c(c1)c1c(n2C(C)C(O)c2ccncc2)CCN(C)C1 (stereo not shown) [127b] : 13
Cc1cnc2c(c1)c1c(n2CC(O)c2ccc(F)cc2)CCN(C)C1 (single isomer, unassigned) [136a] : 54
Cc1ccc2c(c1)c1c(n2CC(c2ccncc2)N2CCCC2)CCN(C)C1 (single isomer, unassigned) [152b] : 7

--- query ---
Quick one: give measured Percentage inhibition of ligand binding, Adrenergic α1B for Cc1ccc2c(c1)c1c(n2CC(O)c2ccc(C#N)cc2)CCN(C)C1 (stereo not shown) [142a] 68

====

target: rat adrenergic α1B receptor (Rattus norvegicus, UniProt P15823); construct: rat adrenergic α1B receptor obtained from Wistar Rat liver; from tissue; host or cells: Wistar rat liver; test: Radioligand binding, adrenergic α1B ([3H]Prazosin); parameters: species or system Wistar Rat; conditions: compound at 0.1 μM
Output TRUE for Percentage inhibition of ligand binding, Adrenergic α1B not less than 20%; output FALSE otherwise.

Cc1cnc2c(c1)c1c(n2CC(O)c2ccc(C)nc2)CCN(C)C1 (single isomer, unassigned) [II-100b] : TRUE

Quick check, Percentage inhibition of ligand binding, Adrenergic α1B >= 20%? Cc1ccc2c(c1)c1c(n2CC(O)c2cn[nH]c2)CCN(C)C1 (stereo not shown) [II-106a] TRUE

Could you verify whether the entry Cc1ccc2c(c1)c1c(n2C(C)C(O)c2ccncc2)CCN(C)C1 (stereo not shown) [II-98a] shows Percentage inhibition of ligand binding, Adrenergic α1B of no less than 20%? TRUE

====

Target: human recombinant adrenergic α2A receptor (Homo sapiens, UniProt P08913)
Construct: expressed in transfected cells; host or cells: insect Sf9 cells
Sequence (P08913 whole entry): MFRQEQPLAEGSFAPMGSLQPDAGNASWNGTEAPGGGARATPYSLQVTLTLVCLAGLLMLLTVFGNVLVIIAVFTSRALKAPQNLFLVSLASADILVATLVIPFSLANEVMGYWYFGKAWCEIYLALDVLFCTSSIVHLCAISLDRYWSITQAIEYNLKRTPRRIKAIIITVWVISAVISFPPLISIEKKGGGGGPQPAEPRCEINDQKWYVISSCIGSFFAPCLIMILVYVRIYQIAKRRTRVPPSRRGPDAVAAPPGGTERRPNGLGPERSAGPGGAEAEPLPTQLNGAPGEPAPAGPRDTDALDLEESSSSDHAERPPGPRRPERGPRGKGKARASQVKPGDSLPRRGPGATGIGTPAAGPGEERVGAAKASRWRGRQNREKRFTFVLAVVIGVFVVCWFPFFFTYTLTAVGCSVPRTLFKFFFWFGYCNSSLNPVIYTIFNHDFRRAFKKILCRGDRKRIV
Test: Radioligand binding, adrenergic α2A ([3H]MK-912)
Conditions: compound at 0.1 μM; [3H]MK-912; 0.1 µM
Experimental: To evaluate in radioligand binding assays the activity of compounds of the invention, human recombinant adrenergic α2A receptor expressed in insect Sf9 cells (Uhlen, S. et al, J. Pharmacol. Exp. Ther. 271:1558, 1994) in a modified Tris-HCl buffer (50 mM Tris-HCl, pH 7.4, 12.5 mM MgCl2, 2 mM EDTA) was used. […] Receptor proteins were filtered and washed, the filters were then counted to determine [^3H]MK-912 specifically bound. […]
Percentage inhibition of ligand binding, Adrenergic α2A: recorded values
Enter your answer as a number in %; do not include the unit.

OCCN1CCc2c(c3cc(Cl)ccc3n2CC(O)c2cccnc2)C1 (single isomer, unassigned) [II-94b] : −5

Read the entry Cc1ccc2c(c1)c1c(n2CC(C)c2ccc(C)nc2)CCN(C)C1 (single isomer, unassigned) [289a] and write its reported Percentage inhibition of ligand binding, Adrenergic α2A. 60

# return recorded Percentage inhibition of ligand binding, Adrenergic α2A for input CN1CCc2c(n(CC(O)c3ccc(F)c(F)c3)c3ccc(Cl)cc23)CC1 (single isomer, unassigned) [339b] 64

Complete the entry with Percentage inhibition of ligand binding, Adrenergic α2A for CN1CCc2c(n(CC(O)c3ccc(F)c(F)c3)c3ccc(Cl)cc23)CC1 (single isomer, unassigned) [339a] 37

Supply measured Percentage inhibition of ligand binding, Adrenergic α2A of Cc1cnc2c(c1)c1c(n2CC(C)(O)c2cccnc2)CCN(C)C1 (single isomer, unassigned) [II-99a] in your reply. 24

Query Percentage inhibition of ligand binding, Adrenergic α2A for Cc1cnc2c(c1)c1c(n2CC(C)(O)c2cccnc2)CCN(C)C1 (single isomer, unassigned) [II-99b] 16

Return value of Percentage inhibition of ligand binding, Adrenergic α2A for input Cc1ccc2c(c1)c1c(n2CC(C)c2ccc(C)nc2)CCN(C)C1 (single isomer, unassigned) [289b] , no commentary. 53
